B1: PEX5 peptide 110-125 (Peroxisomal targeting signal 1 receptor), 16-mer library wild type / PEX14 Pex14 (PEX14 PEX14, residues 16-84) (parent)
chain 1: ADLALSENWAQEFLAA
chain 2: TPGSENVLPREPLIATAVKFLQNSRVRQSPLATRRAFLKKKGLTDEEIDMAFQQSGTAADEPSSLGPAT

# Variants of: B1
# Method description: proteomic peptide phage display deep mutational scan (ProP-PD DMS): M13 P8 16-mer library selected against immobilised GST-tagged bait for four days (rounds), NGS of the eluted pools per day and pseudo-replica
# Test parameters: with PEX14 Pex14 (PEX14 PEX14, residues 16-84); bait immobilised on MaxiSorp plates (10 µg), library pre-cleared on GST, 2 h binding at 4 °C, five washes; one round per day, days 1-4; value from days 2 and 3; scale: average fractional NGS count over selection days 2 and 3
Reported endpoint: screen value

Before answering, review these 4 worked examples.
1) chain 1 ADLYLSENWAQEFLAA [chain 1 A4Y]	0.000159
2) chain 1 AILALSENWAQEFLAA [chain 1 D2I]	0.000253
3) chain 1 ADLALSEKWAQEFLAA [chain 1 N8K]	7.71e-05
4) chain 1 ADLARSENWAQEFLAA [chain 1 L5R]	0.000218

Recorded screen value for chain 1 ADLALSENWDQEFLAA [chain 1 A10D] , please? 0

Similarly, chain 1 ADLANSENWAQEFLAA [chain 1 L5N] ? 9.07e-05

chain 1 ADLALSERWAQEFLAA [chain 1 N8R] , same question. 0

Item: chain 1 ADLALSENWATEFLAA [chain 1 Q11T] 0.000165

Next variant: chain 1 ADLALMENWAQEFLAA [chain 1 S6M] 0.000156

Note, next up: chain 1 ADLALWENWAQEFLAA [chain 1 S6W] 0

chain 1 ADLALSENYAQEFLAA [chain 1 W9Y] , same question. 0

And the next one, chain 1 ADLALSENWSQEFLAA [chain 1 A10S] ? 0.000299

Try this variant next: chain 1 ADLALIENWAQEFLAA [chain 1 S6I] 0.000313

Moving on to the next variant: chain 1 RDLALSENWAQEFLAA [chain 1 A1R] 0.00015

Please do the same for chain 1 ADEALSENWAQEFLAA [chain 1 L3E] as well. 0.000345

Continue with chain 1 HDLALSENWAQEFLAA [chain 1 A1H] 0

Repeat for the following variant: chain 1 ADLALSENWAQRFLAA [chain 1 E12R] 9.56e-05

And for chain 1 ADLALSENWAQEFAAA [chain 1 L14A] ? 0.000388

Entry to check: chain 1 ADLALSENWMQEFLAA [chain 1 A10M] 0

Another variant to check: chain 1 ADLALSEYWAQEFLAA [chain 1 N8Y] 0.000147

What do you have for chain 1 ADLALSENWAQEFLEA [chain 1 A15E] ? 0.000302

Same read-out for chain 1 ADLDLSENWAQEFLAA [chain 1 A4D] ? 0.000198

Same read-out for chain 1 ADLGLSENWAQEFLAA [chain 1 A4G] ? 0

Origin of values: paper PMC12102759
